- Test system: P388 leukemia ip, CD2F1 mice, survival T/C
- protocol-details: NCI In Vivo Anticancer Drug Screen. Data for tumor model P388 Leukemia (intraperitoneal) in CD2F1 (CDF1) mice
- measurement-context: endpoint: median survival time; dose: 100.0 mg/kg/injection; schedule: Q04DX003 (ip); vehicle: saline with Tween-80
- Protocol: The antitumor activity of compounds was measured in mice bearing transplantable tumors. Survival or tumor size were measured and the results are expressed as the measurement made in the treated group (T) divided by the measurement made in the vehicle treated control group (C). The tumor model used in this assay is P388 Leukemia (intraperitoneal) in CD2F1 (CDF1) mice
Toxic doses and inconclusive results are not listed. How the source made its calls: active means survival T/C of 150% or more; inactive means T/C below 125% in these data.
Respond with a class label; see YES = active, NO = inactive

What did this assay record as the result for "Cc1cccc(Cl)c1NC(=O)CS" ?
NO

What did this assay record as the result for OC(CC1(O)C(F)(F)C(F)(F)C1(F)F)c1ccccc1 (configuration not stated) ?
NO

What did this assay record as the result for "CCOC(=O)CCCc1ccc(N=NN(C)C)cc1" ?
YES

What did this assay record as the result for "O=C1CC[S][Sn][O]1" ?
NO

What did this assay record as the result for "NC(=S)N/N=C/c1nc2ccccc2[nH]1" ?
NO

What did this assay record as the result for CC(=O)NC(CCl)(OC(C)=O)C(=O)OCc1ccc([N+](=O)[O-])cc1 (configuration not stated) ?
NO

What did this assay record as the result for "CCOC(=O)c1ccc(NCC#N)cc1" ?
NO
